Measured values drawn from the NIST ThermoML archive (doi:10.1021/acs.jced.6b00178) for this set.

# methodDescription: xn = mol fraction of the nth substance listed
# conditionDescription: 353.15 K; 100 kPa; Liquid; Vibrating tube method; x2 = 0.25
measure: mass density (kg/m3)
Please respond with the number in kg/m3 and leave the unit unwritten.

Known results for compounds:
Exercise: May I ask what mass density has been recorded for CCCCn1cc[n+](C)c1.F[P-](F)(F)(F)(F)F [1-butyl-3-methylimidazolium hexafluorophosphate] + CCCC[n+]1ccn(C)c1.O=S(=O)([N-]S(=O)(=O)C(F)(F)F)C(F)(F)F ?
Solution: 1342.7

Exercise: Moving on to the next compound: CCCCn1cc[n+](C)c1.N#C[S-] [1-butyl-3-methylimidazolium thiocyanate] + CCCC[n+]1ccn(C)c1.O=S(=O)([N-]S(=O)(=O)C(F)(F)F)C(F)(F)F
Solution: 1157.3

Exercise: Moving on to the next compound: CCCCn1cc[n+](C)c1.O=S(=O)([O-])C(F)(F)F [1-butyl-3-methylimidazolium trifluoromethanesulfonate] + CCCC[n+]1ccn(C)c1.O=S(=O)([N-]S(=O)(=O)C(F)(F)F)C(F)(F)F
Solution: 1294

Exercise: Moving on to the next compound: CC(=O)[O-].CCCCn1cc[n+](C)c1 [1-butyl-3-methylimidazolium acetate] + CCCC[n+]1ccn(C)c1.O=S(=O)([N-]S(=O)(=O)C(F)(F)F)C(F)(F)F
Solution: 1142.6

Proceeding to the next compound to report its mass density.
Exercise: May I ask what mass density has been recorded for CCCCn1cc[n+](C)c1.COP(=O)([O-])OC [1-butyl-3-methyl-1H-imidazolium dimethylphosphate] + CCCC[n+]1ccn(C)c1.O=S(=O)([N-]S(=O)(=O)C(F)(F)F)C(F)(F)F ?
Solution: 1199

* * *

# mass density annotations
# methodDescription: xn = mol fraction of the nth substance listed
# conditionDescription: 293.15 K; 100 kPa; Liquid; Vibrating tube method; x2 = 0.25
Please respond with the number in kg/m3 and leave the unit unwritten.

Known results for compounds:
Exercise: May I ask what mass density has been recorded for CC(=O)[O-].CCCCn1cc[n+](C)c1 [1-butyl-3-methylimidazolium acetate] + CCCC[n+]1ccn(C)c1.O=S(=O)([N-]S(=O)(=O)C(F)(F)F)C(F)(F)F ?
Solution: 1185.6

Exercise: Moving on to the next compound: CCCCn1cc[n+](C)c1.O=S(=O)([O-])C(F)(F)F [1-butyl-3-methylimidazolium trifluoromethanesulfonate] + CCCC[n+]1ccn(C)c1.O=S(=O)([N-]S(=O)(=O)C(F)(F)F)C(F)(F)F
Solution: 1344

Exercise: Moving on to the next compound: CCCCn1cc[n+](C)c1.COP(=O)([O-])OC [1-butyl-3-methyl-1H-imidazolium dimethylphosphate] + CCCC[n+]1ccn(C)c1.O=S(=O)([N-]S(=O)(=O)C(F)(F)F)C(F)(F)F
Solution: 1243.1

Exercise: Moving on to the next compound: CCCCn1cc[n+](C)c1.F[P-](F)(F)(F)(F)F [1-butyl-3-methylimidazolium hexafluorophosphate] + CCCC[n+]1ccn(C)c1.O=S(=O)([N-]S(=O)(=O)C(F)(F)F)C(F)(F)F
Solution: 1393.8

---
Exercise: May I ask what mass density has been recorded for CCCCn1cc[n+](C)c1.N#C[S-] [1-butyl-3-methylimidazolium thiocyanate] + CCCC[n+]1ccn(C)c1.O=S(=O)([N-]S(=O)(=O)C(F)(F)F)C(F)(F)F ?
Solution: 1199
